Source: paper PMC6222476

- System: MCF-7 human breast cancer cell line
- assay.procedure: cells
- Format: cell-based
- assay.context: Homo sapiens, MCF7, SRB assay, 48 h
- Source text: All the newly synthesized compounds were screened for their in vitro anticancer activity against six cancer cell lines: SK-MEL-2, MCF-7, IMR-32, MG-63, HT-29 and Hep-G2 by SRB assay, using adriamycin as a standard drug. […]
Listing of recorded GI50 by entry.
measured.attribute: GI50 (µM)

[[record]]
compound = "COc1cccc2c1C(=O)c1c(O)c3c(c(O)c1C2=O)C[C@@](O)(C(=O)CO)C[C@@H]3O[C@H]1C[C@H](N)[C@H](O)[C@H](C)O1 [ADR, Adriamycin, reference compound]"
readout_unit = "µM"
censor_symbol = "<"
recorded_result = 0.1

[[record]]
compound = "CCOP(=O)(OCC)C(N/N=C1\\C(=O)Nc2ccccc21)c1ccc([N+](=O)[O-])cc1 (stereo not drawn)"
readout_unit = "µM"
censor_symbol = "="
recorded_result = 77.2

[[record]]
compound = "CCOP(=O)(OCC)C(N/N=C1\\C(=O)Nc2ccccc21)c1scnc1C (stereo not drawn)"
readout_unit = "µM"
censor_symbol = "="
recorded_result = 58.2

[[record]]
compound = "CCOP(=O)(OCC)C(N/N=C1\\C(=O)Nc2ccccc21)c1ccc(O)c(C)c1 (stereo not drawn)"
readout_unit = "µM"
censor_symbol = "="
recorded_result = 78.4

[[record]]
compound = "CCOP(=O)(OCC)C(N/N=C1\\C(=O)Nc2ccccc21)c1ccccc1O (stereo not drawn)"
readout_unit = "µM"
censor_symbol = ">"
recorded_result = 100

[[record]]
compound = "CCOP(=O)(OCC)C(NN=C1C(=O)Nc2ccccc21)c1ccc(O)cc1 (stereo not drawn)"
readout_unit = "µM"
censor_symbol = ">"
recorded_result = 100

